molecular target: CCL11_HUMAN (Homo sapiens, UniProt P51671); test: Biolayer interferometry (BLI) binding
Sequence (P51671 24-97): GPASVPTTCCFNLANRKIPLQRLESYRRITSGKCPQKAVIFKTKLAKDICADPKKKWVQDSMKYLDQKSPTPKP
Measurement Label: pKd
Note on pKd: it is the negative log10 of concentration, concentration in mol/L.

Task: Input P1180_AMBTR: tick CKBP, Amblyomma triste (protein, Amblyomma triste) EEPKDGYDYTEGCPFVVLGNGTHAKPAGCSHLCNGAPETLDDNMECYNVTEEVAKRMTPDIPYTCWLGWCSKGECKRDNRTEVCYRGSERE , output reported pKd.
Result: 7.48

Task: Specify measured pKd for P991_AMBCA: tick CKBP, Amblyomma cajennense (protein, Amblyomma cajennense) ENGEGTTQPDYDNSTDYYNYEDFKCTCPAPHLNNTNGTVMKPIGCYYTCNVTRCTAPDTYPCYNLTEHQAKNLTTSPTTLCAVGNCDHGICVPNGTKELCFKAPNLEE .
Result: 8.46

Task: Identify pKd associated with the molecule P1182_AMBMA: tick CKBP, Amblyomma maculatum (protein, listed as Amblyomma maculatum) EPKDDNDYGGGCPFVVLGNGTHAKPAGCSHLCNGAPETLDNIECYNVTEEVAKRMTPGIPYACWLGWCNKGECKRGNRTEVCYRGSEEE
Result: 7.55
